# Test system: growth hormone secretion
# assayRemarks: GHRP induced growth hormone secretion, intravenous administration (Rat IV)
# Assay type: in vivo
# conditionInfo: Table IV; iv injection, serum GH 10 min after injection
Non-standard residues stand in square brackets, D forms with d. Residues, ends and D or L forms follow the SMILES beside them. dNMe2Nal = CN[C@H](Cc1ccc2ccccc2c1)C(=O)O; d2Nal = N[C@H](Cc1ccc2ccccc2c1)C(=O)O; Inp = O=C(O)C1CCNCC1
Property: RAT IV ED50; scope: individual compounds
parameter: RAT IV ED50 (µg)

compound	recordedValue
NCCCCNC(=O)[C@@H](Cc1ccc2ccccc2c1)NC(=O)[C@@H](Cc1ccc2ccccc2c1)NC(=O)C1CCNCC1 [(inip) b b bam]	3.3
N[C@H]1CC[C@H](NC(=O)[C@@H](Cc2ccc3ccccc3c2)NC(=O)[C@@H](Cc2ccc3ccccc3c2)NC(=O)C2CCNCC2)CC1 [(inip) b b cxa]	10
CN(C(=O)[C@@H](Cc1ccc2ccccc2c1)NC(=O)C1CCNCC1)[C@H](Cc1ccc2ccccc2c1)C(=O)N[C@@H](Cc1ccccc1)C(N)=O [(inip) b nmb F amide] (H-[Inp][d2Nal][dNMe2Nal]F-NH2)	5
COC(=O)[C@H](Cc1ccccc1)NC(=O)[C@@H](Cc1ccc2ccccc2c1)NC(=O)[C@@H](Cc1ccc2ccccc2c1)NC(=O)C1CCNCC1 [(inip) b b F Me ester] (H-[Inp][d2Nal][d2Nal]F-OMe)	2

====

# Tested on: growth hormone secretion
# assayRemarks: GHRP induced growth hormone secretion, intravenous administration (Rat IV)
# Assay type: in vivo
# conditionInfo: Table III; iv injection, serum GH 10 min after injection
Starred links: 1 amine or outer side, 2 acyl side, 3 side chain; linkers in the order of their positions; H or OH if unused. Non-standard residues stand in square brackets, D forms with d. Residues, ends and D or L forms follow the SMILES beside them. ξ: configuration not given here. *: point of attachment. dNMe2Nal = CN[C@H](Cc1ccc2ccccc2c1)C(=O)O; d2Nal = N[C@H](Cc1ccc2ccccc2c1)C(=O)O; ξNMe2Nal = CNC(Cc1ccc2ccccc2c1)C(=O)O; ξ2Nal = NC(Cc1ccc2ccccc2c1)C(=O)O; NMeGABA = CN(CCCC(=O)[*:2])[*:1]; Morpholide = C1CN(*)CCO1; Inp = O=C(O)C1CCNCC1; ξK = NCCCCC(N)C(=O)O; Ava = NCCCCC(=O)O
RAT IV ED50 values by entry

compound	targetOrTestSystem	RAT IV ED50 / µg
CNCCCC(=O)NC(Cc1ccc2ccccc2c1)C(=O)N[C@H](Cc1ccc2ccccc2c1)C(=O)N[C@@H](Cc1ccccc1)C(=O)NC(CCCCN)C(N)=O (stereo partly shown) [(mab) b b F K amide] (NMeGABA-[ξ2Nal][d2Nal]F[ξK]-NH2)	growth hormone secretion	0.7
CN(C(=O)C1CCNCC1)[C@H](Cc1ccc2ccccc2c1)C(=O)N[C@H](Cc1ccc2ccccc2c1)C(=O)N[C@@H](Cc1ccccc1)C(=O)N1CCOCC1 [(inip) nmb b F mor] (H-[Inp][dNMe2Nal][d2Nal]F-Morpholide)	growth hormone secretion	10
NCCCC[C@H](NC(=O)[C@H](Cc1ccccc1)NC(=O)[C@@H](Cc1ccc2ccccc2c1)NC(=O)[C@@H](Cc1c[nH]c2ccccc12)NC(=O)[C@@H](N)Cc1c[nH]cn1)C(N)=O [H w b F K amide] (H-H[dW][d2Nal]FK-NH2)	growth hormone secretion	50
CN(C(=O)C1CCNCC1)C(Cc1ccc2ccccc2c1)C(=O)N[C@H](Cc1c[nH]c2ccccc12)C(=O)N[C@@H](Cc1ccccc1)C(=O)NC(CCCCN)C(N)=O (stereo partly drawn) [(inip) nmb w F K amide, (inip)-(N-Me-DβNal)-DTrp-Phe-Lys-amide] (H-[Inp][ξNMe2Nal][dW]F[ξK]-NH2)	growth hormone secretion	0.2
NCCCC[C@H](NC(=O)[C@H](Cc1ccccc1)NC(=O)[C@@H](Cc1c[nH]c2ccccc12)NC(=O)[C@@H](Cc1ccc2ccccc2c1)NC(=O)CN)C(N)=O [G b w F K amide] (H-G[d2Nal][dW]FK-NH2)	growth hormone secretion	4.8
NCCCCC(=O)N[C@H](Cc1c[nH]c2ccccc12)C(=O)N[C@H](Cc1c[nH]c2ccccc12)C(=O)N[C@@H](Cc1ccccc1)C(=O)N[C@@H](CCCCN)C(N)=O [(Ava) w w F K amide] (H-[Ava][dW][dW]FK-NH2)	growth hormone secretion	5
C[C@@H](N)C(=O)N[C@H](Cc1c[nH]c2ccccc12)C(=O)N[C@H](Cc1c[nH]c2ccccc12)C(=O)N[C@@H](Cc1ccccc1)C(=O)N[C@@H](CCCCN)C(N)=O [a w w F K amide] (H-[dA][dW][dW]FK-NH2)	growth hormone secretion	1.47
